Target Under Test: rat Y5 receptor (Rattus norvegicus)
Construct: expressed in transfected cells; host or cells: C6 cells (membrane preparation)
Sequence (Q63634 whole entry): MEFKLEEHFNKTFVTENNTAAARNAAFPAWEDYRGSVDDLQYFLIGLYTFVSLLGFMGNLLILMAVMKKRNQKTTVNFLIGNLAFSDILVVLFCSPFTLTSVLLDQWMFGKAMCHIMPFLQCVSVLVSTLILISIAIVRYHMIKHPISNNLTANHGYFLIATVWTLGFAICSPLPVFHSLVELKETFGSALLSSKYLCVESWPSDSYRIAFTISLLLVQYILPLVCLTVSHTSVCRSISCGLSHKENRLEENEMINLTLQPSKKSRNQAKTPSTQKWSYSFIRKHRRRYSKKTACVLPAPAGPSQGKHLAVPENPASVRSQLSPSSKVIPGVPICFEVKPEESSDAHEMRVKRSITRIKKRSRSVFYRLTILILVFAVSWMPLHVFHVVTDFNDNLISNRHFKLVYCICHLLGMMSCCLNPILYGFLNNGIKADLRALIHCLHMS
Method Description: Neuropeptide Y5 receptor binding ([125I]-PYY displacement, membranes of transfected C6 cells)
Stated Conditions: compound at 10^−6 M; radioligand [125I]-PYY 100 pM; C6 cells transfected with rat Y5 receptor
Assign inhibition at 1 µM to each entry below.
Write the answer as a number in %, unit excluded.

Data request: // returns reported inhibition at 1 µM for input O=C(CN1CCC(Nc2ccccc2O)CC1)Nc1ccc2c(c1)-c1ccccc1C2=O
Data returned: 95

Data request: I would be grateful if you could share the reported inhibition at 1 µM for COc1cccc(NC2CCN(CC(=O)Nc3ccc(C(=O)c4ccccc4)cc3)CC2)c1 .
Data returned: 37

Data request: If you can, please state the reported inhibition at 1 µM value of CCn1c2ccccc2c2cc(NC(=O)CN3CCC(Nc4ccccc4)CC3)ccc21 .
Data returned: 80.7

Data request: Which inhibition at 1 µM reading was recorded for the compound O=C(CN1CCC(Nc2ccccc2O)CC1)Nc1ccc(C(=O)c2ccccc2)cc1 ?
Data returned: 62.5
